Test system: IGROV-1
Test: NCI tumour cell line growth inhibition, 48 h
Calls of active or inactive are those of the source. Rule as the data show it: active = GI50 up to about 1.1 µM and inactive = higher.
The reply should be one of these categories: yes (active), no (inactive)

| Molecule | Study system | Class assignment |
| --- | --- | --- |
| CC[C@]12C=CCN3CC[C@@]4(c5cc(N=O)c(OC)cc5N(C)[C@H]4[C@@](O)(C(=O)OC)[C@@H]1OC(C)=O)[C@@H]32 | IGROV-1 | no |
| CC(C)(C)OC(=O)[C@H]1CCC(=S)N1Cc1ccccc1 | IGROV-1 | no |
| CC1(C)C2CC(c3ccncc3)ON2C(C)(C)N1O (stereo not given) | IGROV-1 | no |
| Cc1nc2ccccc2c(=O)n1/N=C(\N=N\c1cc(Cl)ccc1Cl)c1ccc(N(C)C)cc1 | IGROV-1 | no |
| COC1C=C(NCC2(CO)CCC2)N=C(N)N1 (stereo not given) | IGROV-1 | no |

Query: Called result for "CCc1n[nH]c(=O)n1/N=C(\C)c1ccccc1"
Result: no

----------
Test system: DMS-273
Assay: NCI tumour cell line growth inhibition, 48 h
Calls of active or inactive are those of the source. Rule as the data show it: active = GI50 up to about 1.1 µM and inactive = higher.
The reply should be one of these categories: 1 for active, 0 for inactive

| Molecule | Class assignment |
| --- | --- |
| N#C/N=C(/NCc1ccccc1)N(Cc1ccccc1)Cc1ccccc1 | 0 |
| C[S+]([O-])c1cc(=O)c2ccccc2s1 (stereo unspecified) | 0 |

Query: Called result for "CCN(CCCl)CCCNc1c2ccccc2nc2ccc(OC)cc12"
Result: 1

Query: Called result for "N/C(=N\O)N/N=C/c1ccc(O)c(O)c1"
Result: 0

Query: Called result for "CN(C)CCNc1ccc2nnn3c4ccc(Cl)cc4c(=O)c1c23"
Result: 0

Query: Called result for C#CC1(O)CCC2C3CCc4cc(Oc5nc(F)nc(-c6c7ccccc7c7sc8ccccc8n67)n5)ccc4C3CC[C@@]21C (stereo partly specified)
Result: 0

----------
Here, each record is paired with measured GI50 data.
System: EKVX
Assay: NCI tumour cell line growth inhibition, 48 h
Activity calls are given as the source filed them. Rule as the data show it: active = GI50 up to about 1.1 µM and inactive = higher.

Query: Provide one value: measured GI50 of CC#CC(O)(C(=O)OC1CC2CCC(C1)N2C)C1CCCC1 (stereo not drawn)
Result: > 100 µM (inactive)

Query: Provide one value: measured GI50 of "COC(=O)[C@H](C)N(C)C(=O)[C@H](C)N1[C@@H](c2ccccc2)COC1(C)C"
Result: > 100 µM (inactive)

Query: Provide one value: measured GI50 of O=C(O)CCC1NC(/C(=C/c2ccccc2O)NC(=O)c2ccccc2)OC1=O (stereo not drawn)
Result: > 100 µM (inactive)

Query: Provide one value: measured GI50 of C/C(=N/N(C=O)C[n+]1ccccc1)C(CN(CC(C)C)CC(C)C)C(=O)Nc1ccc(C)cc1C (stereo not drawn)
Result: 17.8 µM (inactive)

Query: Provide one value: measured GI50 of "O=c1cc(/C=C/c2ccc(O)c(O)c2)cc(/C=C/c2ccc(O)c(O)c2)o1"
Result: 8.11 µM (inactive)

Query: Provide one value: measured GI50 of "Cc1nc(Nc2nc3ccccc3[nH]2)[nH]c(=O)c1CCO"
Result: > 100 µM (inactive)

Query: Provide one value: measured GI50 of CCCN(CCCC(NC(C)=O)C(=O)NCc1ccccc1)C(=O)N(CCCl)N=O (stereo not drawn)
Result: 31.7 µM (inactive)

Query: Provide one value: measured GI50 of "CN(CCC(=O)O)C1=Nc2ccc(Cl)cc2C(c2ccccc2)=[N+]([O-])C1"
Result: > 100 µM (inactive)

Query: Provide one value: measured GI50 of "CCC1(O)C=CC(=O)C=C1"
Result: 55.1 µM (inactive)

Query: Provide one value: measured GI50 of O=C(CC1(O)C(=O)Nc2ccccc21)c1cccc(O)c1 (stereo not drawn)
Result: > 100 µM (inactive)

Query: Provide one value: measured GI50 of C[C@]12CCC(=O)C(O)=C1CC[C@@H]1C2CC[C@]2(C)NC(=O)CCC12 (stereo partly drawn)
Result: > 100 µM (inactive)

Query: Provide one value: measured GI50 of "CCc1nc(N)nc(N)c1-c1ccc(Cl)c(/N=C/N(C)C)c1"
Result: > 87.3 µM (inactive)

Query: Provide one value: measured GI50 of BrC(=C(c1ccc(OC2CCCCO2)cc1)c1ccc(OC2CCCCO2)cc1)c1ccccc1 (stereo not drawn)
Result: > 100 µM (inactive)

Query: Provide one value: measured GI50 of COc1cccc(C(=O)C(O)c2cccc(OC)c2OC)c1OC (stereo not drawn)
Result: > 100 µM (inactive)

Query: Provide one value: measured GI50 of "CN(C)CCNc1ccc2nnn3c4ccc(Cl)cc4c(=O)c1c23"
Result: 4.45 µM (inactive)

Query: Provide one value: measured GI50 of "C=C(C)c1nc(C#N)c(N)o1"
Result: > 100 µM (inactive)

Query: Provide one value: measured GI50 of "Nc1nc(Cc2ccccc2)nc(Cc2ccccc2)c1-c1ccccc1"
Result: 11.4 µM (inactive)

Query: Provide one value: measured GI50 of "S=c1nc(Nc2ccc(Br)cc2)c2c3c(sc2[nH]1)CN(N1CCc2c(sc4[nH]c(=S)nc(Nc5ccc(Br)cc5)c24)C1)CC3"
Result: 35.2 µM (inactive)

----------
System: SNB-19
Assay: NCI tumour cell line growth inhibition, 48 h
Calls of active or inactive are those of the source. Rule as the data show it: active = GI50 up to about 1.1 µM and inactive = higher.
Here, each record is paired with measured GI50 data.

Solved entries:
| Molecule | Study system | GI50 |
| --- | --- | --- |
| C/C(=N\O)c1ccc2ccc3ccccc3c2c1 | SNB-19 | 62.8 µM (inactive) |
| COC(=O)[C@@H]1C[C@H](c2ccc(OC)c(OC)c2)OC1=O.COC(=O)[C@H]1C[C@H](c2ccc(OC)c(OC)c2)OC1=O | SNB-19 | > 100 µM (inactive) |

Query: Provide one value: measured GI50 of "O/N=N/c1ccc2ccccc2n1"
Result: > 100 µM (inactive)

Query: Provide one value: measured GI50 of Cc1ccc(N2C(=O)C3c4[nH]c5ccc(C)cc5c4C4CCC(C(C)(C)C)CC4C3C2=O)cc1 (centres undefined)
Result: 26.5 µM (inactive)

Query: Provide one value: measured GI50 of "Cc1ccc2c(/C=C/c3ccc(N(C)C)cc3)ccnc2c1C"
Result: > 100 µM (inactive)

----------
Here, each record is paired with measured GI50 data.
System: SF-295
Assay: NCI tumour cell line growth inhibition, 48 h
Calls of active or inactive are those of the source. No stated cut-off is given here; in the data, active = GI50 up to about 1.1 µM and inactive = higher.

| Compound | GI50 |
| --- | --- |
| COc1cccc(C(=O)C(O)c2cccc(OC)c2OC)c1OC (centres undefined) | > 100 µM (inactive) |
| C[C@]12CCC(=O)C(O)=C1CC[C@@H]1C2CC[C@]2(C)NC(=O)CCC12 (some centres undefined) | > 100 µM (inactive) |
| O/N=N/c1ccc(Sc2ccc(/N=N/O)cn2)nc1 | > 100 µM (inactive) |

Query: Provide one value: measured GI50 of COc1ccc(C2=C(Cl)c3cc(OC)c(OC)cc3C2Cl)cc1 (centres undefined)
Result: 15.4 µM (inactive)

Query: Provide one value: measured GI50 of "CCCCCCN(CCCCCC)C(=S)N/N=C(\C)c1ccccn1"
Result: 1.53 µM (inactive)

Query: Provide one value: measured GI50 of CC(=O)O[C@H]1C[C@](C)(O)[C@@]23CC([C@@H](OC(=O)C(C)(C)O)[C@@H](OC(C)=O)C2(COC(=O)c2ccccc2)[C@H]1OC(C)=O)C(C)(C)O3 (some centres undefined)
Result: 84.3 µM (inactive)

Query: Provide one value: measured GI50 of "C[C@]12CC[C@H](O)CC1=CC[C@@H]1[C@@H]2CC[C@]2(C)C(=O)/C(=C/c3ccc([N+](=O)[O-])cc3)C[C@@H]12"
Result: 6.65 µM (inactive)

Query: Provide one value: measured GI50 of "CC(=O)n1nc(-c2ccc3ccccc3c2)nc1C"
Result: 52.8 µM (inactive)

Query: Provide one value: measured GI50 of "N#Cc1nc(-c2ccc(-c3nc(C#N)c(N)o3)cc2)oc1N"
Result: > 10 µM (inactive)

----------
Here, each record is paired with measured GI50 data.
System: SNB-19
Experiment: NCI tumour cell line growth inhibition, 48 h
Active and inactive are the calls of the source. No stated cut-off is given here; in the data, active = GI50 up to about 1.1 µM and inactive = higher.

Solved entries:
| Molecule | Measured |
| --- | --- |
| CC1(C)C=C(S(=O)(=O)c2ccccc2)Oc2ccccc2O1 | 62.5 µM (inactive) |
| CC(C(=O)NCNC(=O)c1ccccc1)C(=O)NCc1ccccc1 (configuration not stated) | > 100 µM (inactive) |
| COc1ccc(/C=N/n2c(Cc3ccccc3)n[nH]c2=O)cc1 | 70.6 µM (inactive) |

Query: Report measured GI50 on SNB-19; entry: "COc1ccc(/C=C/c2cc(=O)cc(/C=C/c3ccc(OC)c(O)c3)o2)cc1O"
Result: 4.84 µM (inactive)

Query: Report measured GI50 on SNB-19; entry: "C[C@]12CC[C@H](O)CC1=CC[C@@H]1[C@@H]2CC[C@]2(C)C(=O)/C(=C/c3ccc([N+](=O)[O-])cc3)C[C@@H]12"
Result: 10.4 µM (inactive)

Query: Report measured GI50 on SNB-19; entry: O=C(NNC(c1ccccc1)C(F)(F)F)c1ccncc1 (configuration not stated)
Result: > 100 µM (inactive)

Query: Report measured GI50 on SNB-19; entry: "C#CCn1c(=O)c(I)cn(/C(=C\C(=O)OCC)C(=O)OCC)c1=O"
Result: 26.9 µM (inactive)

Query: Report measured GI50 on SNB-19; entry: "[O-][n+]1onc2c1CCC(=N\O)/C2=N/Nc1ccccc1"
Result: > 100 µM (inactive)

The reported measurements were obtained from ChEMBL document CHEMBL1201862.
